- System: barnyardgrass
- procedure text: Test A pre-/postemergence herbicide test
- Assay type: in vivo, Echinochloa crus-galli
- test conditions: Postemergence, 2000 g ai/ha; 0 to 100 scale, 0 no effect, 100 complete control
measured parameter: Plant response rating, Barnyardgrass

Previously resolved entries follow.
Cc1nc(C(C)(C)C)sc1C(=O)Nc1cccc(C(=O)NCCF)c1 [Compound 200]; 35
CCn1nc(C(C)(C)C)cc1C(=O)Nc1nc(OC)cc(SCF)n1 [Compound 167]; 0
C#CCNC(=O)c1cccc(NC(=O)c2sc(C(C)(C)C)nc2CC)n1 [Compound 217]; 0
CCNC(=O)c1cncc(NC(=O)c2cc(C(C)(C)C)nn2CC)n1 [Compound 288]; 65
CCc1nc(C(C)(C)C)sc1C(=O)Nc1cccc(C(=O)NCC2CC2)n1 [Compound 215]; 25

Checklist item: Plant response rating, Barnyardgrass tested on barnyardgrass, entry Cn1nc(C(C)(C)C)cc1C(=O)Nc1cccc2c1CCCC2=NO [Compound 116] , value?
25

Checklist item: Plant response rating, Barnyardgrass tested on barnyardgrass, entry CCn1nc(C(C)(C)C)cc1C(=O)Nc1cccc(C(=O)OC)c1C [Compound 87] , value?
55

Checklist item: Plant response rating, Barnyardgrass tested on barnyardgrass, entry CCNC(=O)c1cc(C)nc(NC(=O)c2cc(C(C)(C)C)nn2CC)c1 [Compound 149] , value?
65

Checklist item: Plant response rating, Barnyardgrass tested on barnyardgrass, entry CCn1nc(C(C)(C)C)cc1C(=O)Nc1cncc(C(=O)NCC(F)(F)F)n1 [Compound 291] , value?
40

---

- Test system: redroot pigweed
- procedure text: Test A pre-/postemergence herbicide test
- Assay type: in vivo, Amaranthus retroflexus
- test conditions: Postemergence, 500 g ai/ha; 0 to 100 scale, 0 no effect, 100 complete control
measured parameter: Pigweed plant response rating
// print number alone

Previously resolved entries follow.
CCc1nc(C(C)(C)C)sc1C(=O)Nc1cccc(C(=O)NCC2CC2)n1 [Compound 215]; 70
CCn1nc(C(C)(C)C)cc1C(=O)Nc1cccc(OC(F)(F)F)c1 [Compound 272]; 100
C=CCNC(=O)c1cccc(NC(=O)c2sc(C(C)(C)C)nc2C)c1 [Compound 202]; 50
CCNC(=O)c1ccnc(NC(=O)c2cn(C(C)(C)C)nc2CC)c1 [Compound 452]; 70

// next entry
Checklist item: Pigweed plant response rating tested on redroot pigweed, entry CCNC(=O)c1cccc(NC(=O)c2cn(CC)nc2C(F)(F)F)c1 [Compound 172] , value?
25

---

# Crabgrass, Large plant response rating per record follows
- Test system: large crabgrass
- procedure text: Test A pre-/postemergence herbicide test
- Assay type: in vivo, Digitaria sanguinalis
- test conditions: Preemergence, 2000 g ai/ha; visual rating, 0 to 100 scale (0 no effect, 100 complete control)
// print number alone

Previously resolved entries follow.
CCn1nc(C(C)(C)C)cc1C(=O)Nc1cccc(OC(F)(F)F)c1 [Compound 272]; 100
C#CCNC(=O)c1cccc(NC(=O)c2sc(C(C)(C)C)nc2CC)n1 [Compound 217]; 10
CCNC(=O)c1cccc(NC(=O)c2cn(CC)nc2C(F)(F)F)c1 [Compound 172]; 0
CCn1nc(C(C)(C)C)cc1C(=O)Nc1cccc(OC(C)C)c1 [Compound 273]; 100
CCn1nc(C(C)(C)C)cc1C(=O)Nc1nc(C(=O)N(C)C)ccc1F [Compound 277]; 25

Sample CCn1nc(C(C)(C)C)cc1C(=O)Nc1cncc(C(=O)N(C)C)n1 [Compound 287] — what was its Crabgrass, Large plant response rating?
100

Sample Cc1nc(C(C)(C)C)sc1C(=O)Nc1cccc(C(=O)NCCF)c1 [Compound 200] — what was its Crabgrass, Large plant response rating?
75

Sample COC(=O)c1cccc(NC(=O)c2cc(C(C)(C)C)nn2C)n1 [Compound 312] — what was its Crabgrass, Large plant response rating?
0

---

- Test system: downy bromegrass
- procedure text: Test C postemergence herbicide test
- Format: in vivo, Bromus tectorum
- test conditions: Postemergence; 250 g ai/ha; scale 0 to 100, 0 no effect, 100 complete control
measured parameter: Plant response rating, Bromegrass, Downy

CCc1nn(C(C)(C)C)nc1C(=O)Nc1cccc(C(=O)NC2CC2)c1; 50
CCn1nc(C(C)(C)C)cc1C(=O)Nc1cccc(OC(F)(F)F)c1; 60
Cc1nn(C(C)(C)C)nc1C(=O)Nc1cccc(C(=O)N(C)C)c1; 55

Sample `C=CCOc1cccc(NC(=O)c2cc(C(C)(C)C)nn2CC)c1` — what was its Plant response rating, Bromegrass, Downy?
55

---

- Test system: corn
- procedure text: Test C pre-/postemergence herbicide test
- Format: in vivo, Zea mays
- test conditions: 62 g ai/ha; preemergence; scale 0 to 100
measured parameter: Plant response rating, Corn
// print number alone

Previously resolved entries follow.
CCNC(=O)c1cccc(NC(=O)c2nn(C(C)(C)CC)nc2CC)c1 [Compound 376]; 20
CCc1nn(C(C)(C)C)cc1C(=O)Nc1cccc(C(C)=NO)c1 [Compound 188]; 0

Sample CCc1nc(C(C)(C)C)sc1C(=O)Nc1cccc(C(=O)NCC2CC2)n1 [Compound 215] — what was its Plant response rating, Corn?
0

Sample CCC1=NN(C(C)(C)C)CC1C(=O)Nc1cc(C(=O)N(C)CC)ccc1F (racemic) [Compound 342] — what was its Plant response rating, Corn?
10

---

# Plant response rating, Cupgrass, Woolly per record follows
- Tested on: woolly cupgrass
- procedure text: Test C pre-/postemergence herbicide test
- Type: in vivo, Eriochloa villosa
- test conditions: Postemergence; 250 g ai/ha; scale 0 to 100, 0 no effect, 100 complete control

Sample `CCn1nc(C(C)(C)C)cc1C(=O)Nc1ccc(F)c(C(=O)NCCF)c1` — what was its Plant response rating, Cupgrass, Woolly?
5

Sample `C=CCOC(=O)c1cccc(NC(=O)c2cc(C(C)(C)C)nn2CC)c1` — what was its Plant response rating, Cupgrass, Woolly?
80

Sample `CCn1nc(C(C)(C)C)cc1C(=O)Nc1cccc(OC(F)(F)F)c1` — what was its Plant response rating, Cupgrass, Woolly?
60

Sample `CCn1nc(C(C)(C)C)cc1C(=O)Nc1cccc(C(=O)NC2CC2)n1` — what was its Plant response rating, Cupgrass, Woolly?
30

---

- System: giant foxtail
- procedure text: Test A pre-/postemergence herbicide test
- Type: in vivo, Setaria faberi
- test conditions: preemergence, 500 g ai/ha; visual injury, 0 to 100 scale (0 no effect, 100 complete control)
Foxtail, Giant plant response rating of 20 or higher: true. Under 20: false.

Check out these entries, answers already filled in.
CCn1nc(C(C)(C)C)cc1C(=O)Nc1nc(OC)cc(SCF)n1; false
C#CCNC(=O)c1cccc(NC(=O)c2sc(C(C)(C)C)nc2C)c1; true
CCn1nc(C(C)(C)C)cc1C(=O)Nc1cncc(C(=O)N(C)C)n1; true
CCn1nc(C(C)(C)C)cc1C(=O)Nc1cccc(C(=O)N2CC=CC2)c1; true
CCNC(=O)c1ccnc(NC(=O)c2cn(C(C)(C)C)nc2CC)c1; true

Now let's try a different one.
Please check the record `CCn1nc(C(C)(C)C)cc1C(=O)Nc1nc(C(=O)N(C)C)ccc1F` and state if its Foxtail, Giant plant response rating is at or above 20.
false

---

# Blackgrass plant response rating per record follows
- System: blackgrass
- procedure text: Test B postemergence herbicide test
- Assay type: in vivo, Alopecurus myosuroides
- test conditions: Postemergence, 500 g ai/ha; scale 0 (no effect) to 100 (complete control)
// print number alone

Sample CCc1nn(C(C)(C)C)nc1C(=O)Nc1cccc(C(=O)N2CCCCC2)c1 [Compound 416] — what was its Blackgrass plant response rating?
30

---

- Test system: bermudagrass
- procedure text: Test C pre-/postemergence herbicide test
- Type: in vivo, Cynodon dactylon
- test conditions: 250 g ai/ha; scale 0 to 100 (0 no effect, 100 complete control); visual, 12 to 14 days; preemergence
# Plant response rating, Bermudagrass per record follows
// print number alone

Previously resolved entries follow.
CCn1nc(C(C)(C)C)cc1C(=O)Nc1ccc(F)c(C(=O)NCCF)c1; 100
CCn1nc(C(C)(C)C)cc1C(=O)Nc1cccc(C#N)c1; 95
CCn1nc(C(C)(C)C)cc1C(=O)Nc1cccc(S(=O)(=O)C(F)(F)F)c1; 95

Checklist item: Plant response rating, Bermudagrass tested on bermudagrass, entry `CCNC(=O)c1ccnc(NC(=O)c2cc(C(C)(C)C)nn2CC)c1` , value?
100

---

- Test system: cocklebur
- procedure text: Test B pre-/postemergence herbicide test
- Type: in vivo, Xanthium strumarium
- test conditions: postemergence, 125 g ai/ha; visual rating, scale 0 (no effect) to 100 (complete control)
measured parameter: Cocklebur plant response rating
// print number alone

Previously resolved entries follow.
CCn1nc(C(C)(C)C)cc1C(=O)Nc1cc(C(=O)OC)c(OC)cc1F; 10
CCn1nc(C(C)(C)C)cc1C(=O)Nc1cc(C(=O)N2CCCC2)ccc1F; 40
Cc1nc(C(C)(C)C)sc1C(=O)Nc1cccc(C(=O)NCCF)c1; 10

Sample `CCn1nc(C(C)(C)C)cc1C(=O)Nc1cccc(C(=O)OC)c1` — what was its Cocklebur plant response rating?
70

Sample `CCn1nc(C(C)(C)C)cc1C(=O)Nc1cc(C(N)=O)ccc1F` — what was its Cocklebur plant response rating?
0

Sample `C=CCNC(=O)c1cccc(NC(=O)c2sc(C(C)(C)C)nc2C)c1` — what was its Cocklebur plant response rating?
30

Sample `CCCn1nc(C(C)(C)C)cc1C(=O)Nc1cccc(C(=O)NCC)c1` — what was its Cocklebur plant response rating?
30

Sample `CC(=NO)c1ccnc(NC(=O)c2cc(C(C)(C)C)nn2C)n1` — what was its Cocklebur plant response rating?
0
